assay: Blood levels after oral administration in mice (bioassay vs. Aspergillus montevidensis A35137); details: mouse, in vivo, 240 min
Numbered stars: 1 amine (or outer) side, 2 acyl side, 3 side chain; on linkers, the order of the positions; unused ones are H or OH. Bridge positions count the residues as written; N and C are the ends. Square brackets hold non-standard residues; d marks the D form. Peptide text beside a SMILES is read from it. * marks the point of attachment. Orn(4R-OH,5R-OH) = O=C([C@H](C[C@@H](O)[C@@H](O)N[*:3])N[*:1])[*:2]; hTyr(3S-OH,4S-OH) = N[C@H](C(=O)O)[C@H](O)[C@@H](O)c1ccc(O)cc1; Pro(3S-OH,4S-Me) = C[C@H]1CN[C@H](C(=O)O)[C@H]1O; X1 = CC/C=C\C/C=C\C/C=C\CCCCCCCC(=O)*; Hyp = O=C(O)[C@@H]1C[C@@H](O)CN1
MEASUREMENT_TYPE: Blood Levels After Oral Administration In Mice (ng/mL)
Answers are plain numbers, in ng/mL.

Prompt line: State its Blood Levels After Oral Administration In Mice: CC/C=C\C/C=C\C/C=C\CCCCCCCC(=O)N[C@H]1C[C@@H](O)[C@@H](O)NC(=O)[C@@H]2[C@@H](O)[C@@H](C)CN2C(=O)[C@H]([C@@H](C)O)NC(=O)[C@H]([C@H](O)[C@@H](O)c2ccc(O)cc2)NC(=O)[C@@H]2C[C@@H](O)CN2C(=O)[C@H]([C@@H](C)O)NC1=O [Example 11] (X1-[Orn(4R-OH,5R-OH)]T[Hyp][hTyr(3S-OH,4S-OH)]T[Pro(3S-OH,4S-Me)]; lactam 1-C)
Response line: 0
